- Target system: T1, rhNav1.7α + β1-β2-β3 (rhesus monkey)
- T1 construct: also called rhNav1.7-beta1-beta2-beta3; rhesus Nav1.7α
- Test method notes: binding FACS, CHO FlpIn cells
Reported EC50 values are given for each entry in this list.
Output spec: scalar in nM, unitless text.

Lab book: EC50 of F010302347 (VHH) VHH: EVQLVESGGGVVQPGGSLRLSCAASHRAFIRDVFTGWYRQAPGKQRELVARIYEGGNTQYADSAKGRFTISRDNAKKTVYLQMNSLRPEDTALYYCLFSGTISTGREYRSGDYWGQGTLVTVSS noted as 9.6

binder F010301882 (VHH, I30V vs F0103464B09 (Kabat)) VHH: EVQLVESGGGLVQPGGSLRLSCATTSRAFVRDVFTGWYRRVPGKERELVARIYNGGNTNYADFAKGRFSISRDNAKKMVTLRMSNLKPEDTGVYYCLFSGTINTGREYRSGDYWGQGTLVTVSS , EC50 observed: 41

What the record says about F010302364 (VHH) VHH: EVQLVESGGGVVQPGGSLRLSCAASHRAFIRDLFTGWYRQAPGKQRELVARIYESGNTNYADSVKGRFTISRDNAKKTVYLQMNSLRPEDTALYYCLFSGTISTGREYRSGDYWGQGTLVTVSS : EC50 is 17

Lab book: EC50 of F010301884 (VHH, N53A vs F0103464B09 (Kabat)) VHH: EVQLVESGGGLVQPGGSLRLSCATTSRAFIRDVFTGWYRRVPGKERELVARIYAGGNTNYADFAKGRFSISRDNAKKMVTLRMSNLKPEDTGVYYCLFSGTINTGREYRSGDYWGQGTLVTVSS noted as 50

Input F010301886 (VHH, N58Q vs F0103464B09 (Kabat)) VHH: EVQLVESGGGLVQPGGSLRLSCATTSRAFIRDVFTGWYRRVPGKERELVARIYNGGNTQYADFAKGRFSISRDNAKKMVTLRMSNLKPEDTGVYYCLFSGTINTGREYRSGDYWGQGTLVTVSS . Output EC50: 15
